- Test system: RXF 393 renal
- TEST PROTOCOL: NCI-60 one-dose screen, 48 h
- MEASUREMENT SETUP: 10 µM unless noted
About 83,000 compounds went through this panel and 20% of them were active in at least one assay; those are over-represented in the sample as a whole. Active and inactive are the calls of the source. Rule for the calls: active = growth percent below 10; inactive = the rest.
Possible outcomes: true = active, false = inactive

| MOLECULE | ASSAY TARGET | QUALITATIVE LABEL |
| --- | --- | --- |
| CCc1c(Cl)nc(N)nc1Nc1ccc(C)c(C)c1 | RXF 393 renal | false |
| COc1ccc(C(C)=O)c(OC)c1 | RXF 393 renal | false |
| N=C(N)c1ccc(OCCCCCCCCCCOc2ccc(C(=N)N)cc2)cc1 | RXF 393 renal | true |
| COc1ccc(/C=C(\C#N)n2nc3cccc(F)c3n2)cc1 | RXF 393 renal | false |
| COCc1cnccc1NC1CCCCCC1 | RXF 393 renal | false |
| Nc1ccccc1NC(=O)c1ccc(-n2nc(-c3ccccc3)c3ccccc32)cc1 | RXF 393 renal | false |
| Cc1ncc(C(=O)Nc2ccc(CN3CCN(C)CC3)c(C(F)(F)F)c2)cc1C#Cc1cnc(N)cc1C#N | RXF 393 renal | true |
| Cn1c(-c2c(N)n(CCCN3CCOCC3)c3nc(C#N)c(C#N)nc23)nc2ccccc21 | RXF 393 renal | false |
| COc1ccccc1NS(=O)(=O)c1cccc(C(=O)Nc2ccc(Br)cc2)c1 | RXF 393 renal | false |
| CCNC(=O)Oc1ccc(/C(=C(\C)c2ccccc2)c2ccc(OCCN3CCCCC3)cc2)cc1 | RXF 393 renal | false |
| O=C1Nc2cc(-c3cccc([N+](=O)[O-])c3)ccc2/C1=C/c1ccc[nH]1 | RXF 393 renal | false |
| O=C(Cc1ccccc1)NNc1nc(Cl)nc(N2CCN(C(c3ccccc3)c3ccccc3)CC2)n1 | RXF 393 renal | false |
| COc1ccc2c(c1)C(=O)CC(c1ccccc1OC)O2 (centres undefined) | RXF 393 renal | false |
| CCSCC1CC(O)(c2ccccc2)CC(c2ccc(F)cc2)O1 (centres undefined) | RXF 393 renal | true |
| COc1ccc(C(=O)Cn2c(C(=O)c3ccccc3)nc3ccccc32)cc1 | RXF 393 renal | false |
| C/C=C(\C)C(=O)NC1=CC[C@@]2(C)C(=CCC3C2CC[C@@]2(C)C3CC[C@@H]2C(C)N(C)C)C1=O (some centres undefined) | RXF 393 renal | false |
| O=C(NO)c1ccc(-n2nc(-c3ccccc3)c3ccccc32)cc1 | RXF 393 renal | false |
| O=C(c1nc2ccccc2[nH]1)C1C(c2ccc(Br)cc2)C2CC3CCCC[C@H]3N2[C@@]12C(=O)Nc1cc(Cl)ccc12 (some centres undefined) | RXF 393 renal | false |
| O=C(/C=C/c1ccc(F)cc1)c1ccc(NC(=O)N2CCN(c3cc4c(cc3F)c(=O)c(C(=O)O)cn4C3CC3)CC2)cc1 | RXF 393 renal | false |
| COc1cc(CC(=O)c2ccc(O)c(OC)c2)ccc1O | RXF 393 renal | false |
| CCCCCN1C=C/C(=C\C(=O)N(C)c2ccc(Oc3ccccc3)cc2)c2ccccc21 | RXF 393 renal | false |
| COc1ccc(C(=O)NNc2nc(Cl)nc(N3CCN(C(c4ccccc4)c4ccccc4)CC3)n2)cc1 | RXF 393 renal | true |
| CN1CCN(C(=O)[C@]23CCC(C)(C)C[C@H]2C2=CC[C@@H]4[C@@]5(C)C/C(=C/c6ccncc6)C(=O)C(C)(C)[C@@H]5CC[C@@]4(C)[C@]2(C)CC3)CC1 | RXF 393 renal | false |
| O=C(O)c1ccc2c(c1)C(=O)N(Cc1ccccc1)C2=O | RXF 393 renal | false |
| COc1cc(NC(C)CCCNC(=O)CCC(=O)NCCCNCCCCCCCCNCCCNC(=O)CCC(=O)NCCCC(C)Nc2cc(OC)cc3cccnc23)c2ncccc2c1 (centres undefined) | RXF 393 renal | false |
| CCCCCCCCOc1ccc(/C=N/Nc2cc(C)nc3ccc(Br)cc23)cc1 | RXF 393 renal | false |
| COC(=O)CNC(=O)[C@]12CCC(C)(C)C[C@H]1C1=CC[C@@H]3[C@@]4(C)Cc5c([nH]c6ccccc56)C(C)(C)[C@@H]4CC[C@@]3(C)[C@]1(C)CC2 | RXF 393 renal | false |
| CC1(C)c2[nH]c3ccccc3c2C[C@]2(C)[C@H]3C(=O)C=C4[C@@H]5C[C@@](C)(C(N)=O)CC[C@]5(C)CC[C@@]4(C)[C@]3(C)CC[C@@H]12 | RXF 393 renal | false |
| O=[N+]([O-])CC(c1ccccc1F)c1c[nH]c2ccccc12 (centres undefined) | RXF 393 renal | false |
| CCOC(=O)c1cc(C#N)n2ccc3ccccc3c12 | RXF 393 renal | false |
| CCN1CCN(CCNc2nccc(-c3c(-c4cccc(OC)c4)nc4occn34)n2)S1(=O)=O | RXF 393 renal | false |
| CC(=O)[C@H]1CCC/C=C/[C@@H]2C[C@H](O)C[C@H]2[C@H](O)/C=C/C(=O)O1 | RXF 393 renal | true |
| O=C(O)c1ccc(-c2nn(-c3ccc(C(F)(F)F)cc3)cc2CNc2ccc(Oc3ccccc3)cc2)cc1 | RXF 393 renal | false |
| Oc1ccc(OCCOc2ccc(O)cc2)cc1 | RXF 393 renal | false |
| Fc1ccc(-c2cn3c(nc4ccccc43)c(-c3ccccc3)n2)cc1 | RXF 393 renal | false |
| CN1C(N2CCN(S(=O)(=O)c3ccccc3)CC2)=NS(=O)(=O)c2ccccc21 | RXF 393 renal | true |
| N/C(=N\C(N)=N\c1nc2ccccc2s1)c1cnccn1 | RXF 393 renal | true |
| COc1ccc(/C=C/c2nc(Nc3cccc(NC(C)=O)c3)c3ccccc3n2)cc1 | RXF 393 renal | false |
| O=C1/C=C/[C@@H](O)[C@@H]2C[C@@H](O)C[C@H]2/C=C/CCC[C@H](CCc2cccc3ccccc23)O1 | RXF 393 renal | true |
